Measured pH in clear solution, listed per entry.
test: Dynamic solubility test in water, SGF, FeSSIF, FaSSIF; assay type: physicochemical; conditions: FeSSIF, Time 1; dihydrochloride
Where a name gives a salt, the structure may show the parent alone.

compound	pH in clear solution
CC1CCN(C(=O)c2ccc([C@H](c3cccc(O)c3)N3C[C@@H](C)N(Cc4cccc(F)c4)C[C@@H]3C)cc2)CC1 [Polymorph form B, dihydrochloride]	4.8
CC1CCN(C(=O)c2ccc([C@H](c3cccc(O)c3)N3C[C@@H](C)N(Cc4cccc(F)c4)C[C@@H]3C)cc2)CC1 [Polymorph form O, dihydrochloride]	5.0
CC1CCN(C(=O)c2ccc([C@H](c3cccc(O)c3)N3C[C@@H](C)N(Cc4cccc(F)c4)C[C@@H]3C)cc2)CC1 [Polymorph form J, dihydrochloride]	4.8
CC1CCN(C(=O)c2ccc([C@H](c3cccc(O)c3)N3C[C@@H](C)N(Cc4cccc(F)c4)C[C@@H]3C)cc2)CC1 [Polymorph form P, dihydrochloride]	5.0
CC1CCN(C(=O)c2ccc([C@H](c3cccc(O)c3)N3C[C@@H](C)N(Cc4cccc(F)c4)C[C@@H]3C)cc2)CC1 [Polymorph form F, dihydrochloride]	4.8

----------
assay: Dynamic solubility test in water, SGF, FeSSIF, FaSSIF; assay type: physicochemical; conditions: SGF, Time 1; dihydrochloride
Structures can show the parent of a compound that is named as a salt.

compound	pH in clear solution
CC1CCN(C(=O)c2ccc([C@H](c3cccc(O)c3)N3C[C@@H](C)N(Cc4cccc(F)c4)C[C@@H]3C)cc2)CC1 [Polymorph form B, dihydrochloride]	1.5
CC1CCN(C(=O)c2ccc([C@H](c3cccc(O)c3)N3C[C@@H](C)N(Cc4cccc(F)c4)C[C@@H]3C)cc2)CC1 [Polymorph form O, dihydrochloride]	1.5
CC1CCN(C(=O)c2ccc([C@H](c3cccc(O)c3)N3C[C@@H](C)N(Cc4cccc(F)c4)C[C@@H]3C)cc2)CC1 [Polymorph form F, dihydrochloride]	1.6
CC1CCN(C(=O)c2ccc([C@H](c3cccc(O)c3)N3C[C@@H](C)N(Cc4cccc(F)c4)C[C@@H]3C)cc2)CC1 [Polymorph form P, dihydrochloride]	1.6
CC1CCN(C(=O)c2ccc([C@H](c3cccc(O)c3)N3C[C@@H](C)N(Cc4cccc(F)c4)C[C@@H]3C)cc2)CC1 [Polymorph form J, dihydrochloride]	1.7

----------
assay: Dynamic solubility test in water, SGF, FeSSIF, FaSSIF; type: physicochemical; conditions: FeSSIF, Time 24; dihydrochloride
Counter-ions that a name gives are not always drawn.

compound	pH in clear solution
CC1CCN(C(=O)c2ccc([C@H](c3cccc(O)c3)N3C[C@@H](C)N(Cc4cccc(F)c4)C[C@@H]3C)cc2)CC1 [Polymorph form J, dihydrochloride]	4.7
CC1CCN(C(=O)c2ccc([C@H](c3cccc(O)c3)N3C[C@@H](C)N(Cc4cccc(F)c4)C[C@@H]3C)cc2)CC1 [Polymorph form P, dihydrochloride]	4.6
CC1CCN(C(=O)c2ccc([C@H](c3cccc(O)c3)N3C[C@@H](C)N(Cc4cccc(F)c4)C[C@@H]3C)cc2)CC1 [Polymorph form F, dihydrochloride]	4.9
CC1CCN(C(=O)c2ccc([C@H](c3cccc(O)c3)N3C[C@@H](C)N(Cc4cccc(F)c4)C[C@@H]3C)cc2)CC1 [Polymorph form O, dihydrochloride]	5.2
CC1CCN(C(=O)c2ccc([C@H](c3cccc(O)c3)N3C[C@@H](C)N(Cc4cccc(F)c4)C[C@@H]3C)cc2)CC1 [Polymorph form B, dihydrochloride]	4.6

----------
test: Relative bioavailability test; type: in vivo, SPF-grade SD rats; conditions: both sexes, SD, rat, in vivo, po, 20 mg/kg
Counter-ions that a name gives are not always drawn.

compound	AUC(0-t) [µg·h/mL]
CC1CCN(C(=O)c2ccc([C@H](c3cccc(O)c3)N3C[C@@H](C)N(Cc4cccc(F)c4)C[C@@H]3C)cc2)CC1 [Polymorph form P, dihydrochloride]	0.584

----------
assay: Rough solubility test; format: physicochemical; conditions: water, thermodynamic from solid
Where a name gives a salt, the structure may show the parent alone.
assayReadout: Solubility

compound	testResult
CC1CCN(C(=O)c2ccc([C@H](c3cccc(O)c3)N3C[C@@H](C)N(Cc4cccc(F)c4)C[C@@H]3C)cc2)CC1 [Polymorph form B, dihydrochloride]	6400 to 7200 µg/mL

----------
test: Dynamic solubility test in water, SGF, FeSSIF, FaSSIF; format: physicochemical; conditions: FeSSIF, Time 4; dihydrochloride
Counter-ions that a name gives are not always drawn.
Measured pH in clear solution, listed per entry.

molecule	pH in clear solution
CC1CCN(C(=O)c2ccc([C@H](c3cccc(O)c3)N3C[C@@H](C)N(Cc4cccc(F)c4)C[C@@H]3C)cc2)CC1 [Polymorph form B, dihydrochloride]	4.8
CC1CCN(C(=O)c2ccc([C@H](c3cccc(O)c3)N3C[C@@H](C)N(Cc4cccc(F)c4)C[C@@H]3C)cc2)CC1 [Polymorph form F, dihydrochloride]	4.9
CC1CCN(C(=O)c2ccc([C@H](c3cccc(O)c3)N3C[C@@H](C)N(Cc4cccc(F)c4)C[C@@H]3C)cc2)CC1 [Polymorph form O, dihydrochloride]	5.0
CC1CCN(C(=O)c2ccc([C@H](c3cccc(O)c3)N3C[C@@H](C)N(Cc4cccc(F)c4)C[C@@H]3C)cc2)CC1 [Polymorph form J, dihydrochloride]	4.9
CC1CCN(C(=O)c2ccc([C@H](c3cccc(O)c3)N3C[C@@H](C)N(Cc4cccc(F)c4)C[C@@H]3C)cc2)CC1 [Polymorph form P, dihydrochloride]	5.0
